Quick list: melting point per entry.

// melting point lookup, compound = COc1ccc(-c2c[nH]c3cccc(OC)c3c2=O)cc1 [CRL8491] , result: 215 to 216 °C

Reported melting point ( COc1ccc(-c2cnc3cc(OC)cc(OC)c3c2OCCC2OCCO2)cc1 [CRL8500] ) = 141 to 142 °C

Lab book: melting point of COc1ccc(-c2c[nH]c3ccc(OC)cc3c2=O)cc1 [CRL8490] noted as 335 to 336 °C

The compound listed as COc1ccc(-c2cnc3c(OC)ccc(OC)c3c2OCCCCC#N)cc1 [CRL8519] shows melting point equal to 126 to 127 °C

melting point measured on COc1ccc(-c2cn(C)c3c(OC)ccc(OS(=O)(=O)C(F)(F)F)c3c2=O)cc1 [CRL8511] = 179 to 180 °C

Memo: COc1ccc(-c2cnc3c(OC)ccc(OC)c3c2OCCN(C)C)cc1 [CRL8370] , reported melting point: 69 to 70 °C

Please fill in: melting point reported for COc1ccc(-c2cn(CCN(C)C)c3cc(OC)ccc3c2=O)cc1 [CRL8469] = 142 to 143 °C

melting point recorded for this compound, C=Cc1ccc(OC)c2c1c(=O)c(-c1ccc(OC)cc1)cn2C [CRL8512] , is 104 to 105 °C
